// data source = PubChem BioAssay AID1159580

test: chemical genetic growth profiling, strain panel (AID 1159580);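 further: tested at 20 µM; growth read once vehicle control cultures reached saturation at 30 °C; 1 = growth at the plate median or of vehicle wells; lower values mean less growth of the strain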; conditions: S. cerevisiae deletion strains, growth OD, locus YBL061C, strain skt5, stronger effect = lower value
Among all 5,500 compounds or so, about 2,000 (36%) were called active. Another 18% or so got no clear call; they are omitted. Some of the results follow.
value_type: normalized growth
# output: bare number, no unit

Examples with their reported normalized growth follow.
compound | observed_value
S=c1ccss1 | 0.989
CC(=O)O[C@@H]1CC2C(C)(C)[C@H](O)C[C@H](O)[C@]2(C)C2CC[C@@]3(C)[C@H](c4ccoc4)OC(=O)[C@H]4O[C@]43[C@@]21C (stereo partly specified) | 0.988
CC(C)(O)[C@@H]1CC[C@](C)([C@H]2[C@@H](O)C[C@@]3(C)C4C[C@H](O[C@@H]5O[C@H](CO)[C@@H](O)[C@H](O)[C@H]5O)C5C(C)(C)[C@@H](O[C@@H]6OC[C@@H](O)[C@H](O)[C@H]6O)CC[C@@]56C[C@@]46CC[C@]23C)O1 (stereo partly specified) | 0.999
O=c1cc(-c2cccc(O)c2)oc2ccc(O)cc12 | 0.952
CCCN1C[C@H](CSC)C[C@@H]2c3cccc4[nH]cc(c34)C[C@H]21 | 1.01

Record summary for "CCN(CC)CCNc1ccc(CO)c2sc3ccccc3c(=O)c12" : reported normalized growth = 1

Record summary for "COc1cccc(-c2cc(=O)c3ccc(OC)cc3o2)c1" : reported normalized growth = 0.929

Record summary for "O=C1c2c(O)ccc(O)c2C(=O)c2c(NCCNCCO)ccc(NCCNCCO)c21" : reported normalized growth = 0.81

Record summary for CC(=O)O[C@H]1C[C@H](O[C@H]2[C@@H](O)C[C@H](O[C@H]3[C@@H](O)C[C@H](O[C@H]4CC[C@@]5(C)C(CCC6C5C[C@@H](O)[C@]5(C)[C@@H](C7=CC(=O)OC7)CC[C@]65O)C4)O[C@@H]3C)O[C@@H]2C)O[C@H](C)[C@H]1O[C@@H]1O[C@H](CO)[C@@H](O)[C@H](O)[C@H]1O (stereo partly specified) : reported normalized growth = 0.991

Record summary for "N[C@@H]1CONC1=O" : reported normalized growth = 0.963

Record summary for "Nc1nnc(-c2cccc(Cl)c2Cl)c(N)n1" : reported normalized growth = 1.02

====

test: chemical genetic growth profiling, strain panel (AID 1159580);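 further: tested at 20 µM; growth read once vehicle control cultures reached saturation at 30 °C; 1 = growth at the plate median or of vehicle wells; lower values mean less growth of the strain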; conditions: S. cerevisiae deletion strains, growth OD, locus YJL129C, strain trk1, stronger effect = lower value
The campaign covered roughly 5,500 compounds. About 2,000 (36%) were called active. Not shown: some 18% with an inconclusive outcome. This is one part of the list.
value_type: normalized growth
# output: bare number, no unit

compound | observed_value
CC[C@]12C=CCN3CC[C@@]4(c5ccc(OC)cc5N(C)C4[C@@](O)(C(=O)OC)[C@@H]1OC(C)=O)[C@@H]32 (stereo partly drawn) | 1.02

Record summary for CCC(/C=C/[C@@H](C)[C@H]1CCC2C3CC=C4C[C@@H](O)CC[C@]4(C)C3CC[C@@]21C)C(C)C (stereo partly drawn) : reported normalized growth = 1.01

Record summary for C=CCCCCCCCCCCCC(O)CC(O)CO (stereo not drawn) : reported normalized growth = 0.985

====

test: chemical genetic growth profiling, strain panel (AID 1159580);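 further: tested at 20 µM; growth read once vehicle control cultures reached saturation at 30 °C; 1 = growth at the plate median or of vehicle wells; lower values mean less growth of the strain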; conditions: S. cerevisiae deletion strains, growth OD, locus YOR144C, strain elg1
Screen size: about 5,500 compounds; about 2,000 (36%) were called active. Another 18% or so got no clear call; they are omitted. Cut-off read from the data, not from the text of the source: active = normalized growth mostly below about 0.91 (no sharp cut-off); inconclusive = no clear call, values can overlap the other calls; inactive = mostly above about 0.92. The list shows a part of the results.
Parameter call: string, one of T for active, F for inactive

entry_smiles | assigned_label
COc1ccc(-c2cc(=O)c3ccccc3o2)cc1 | T

q: Each molecule tested received a call. Report the one for "COc1ccc(-c2cc(=O)c3ccccc3o2)cc1OC" .
a: F

q: Each molecule tested received a call. Report the one for "COc1cccc2c1cc([N+](=O)[O-])c1c(C(=O)O)cc3c(c12)OCO3" .
a: F
